Property: inhibition; scope: individual compounds
Molecular target: Glutamate receptor ionotropic, AMPA (Rattus norvegicus) (UniProt P19491+P19492+P19493+P19490)
Assay: Percent Inhibition by displacing [3H]AMPA from Ionotropic glutamate receptor AMPA specific binding sites in rat cortical membranes
Assay type: cell membranes
Design: concentration or dose not given beside the values
Details: concentration not given here
# output: number + unit

Known inhibition results, listed for orientation:
COC(=O)c1cc2c3cc(Cl)c(Cl)cc3nc(O)n2n1	42%
O=C(O)c1cc2n(n1)C(C(=O)O)Nc1ccccc1-2 (stereo not drawn)	0%

Q: Recorded inhibition for CCOC(=O)c1cc2c3cc(N)c(Cl)cc3nc(O)n2n1 , please?
Ans: 33%

These entries and their values trace back to ChEMBL document CHEMBL1135729.
